B1: KLHL12 (parent)
chain: REESLPNLLQYVRMPLLTPRYITD

Variants of: B1
test-protocol: protein stability index of a GFP-peptide fusion (GPS, HEK-293T) (PSI 1-6); higher = more stable;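 further: lentivirally expressed fusions sorted by FACS into six bins by GFP to DsRed ratio, PSI derived from sequencing read proportions per bin multiplied by bin number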
condition-set: c terminus: a fixed tail appended
Classify by measured protein stability index: satisfied if it is equal to or exceeds 3, not satisfied if it is smaller.

Determine whether measured protein stability index meets or exceeds 3 for REESLPNLLQYVVMPLLTPRYITD [R13V]
not satisfied

Determine whether measured protein stability index meets or exceeds 3 for REESLPILLQYVRMPLLTPRYITD [N7I]
not satisfied

Determine whether measured protein stability index meets or exceeds 3 for REESLPNLLQYVRWPLLTPRYITD [M14W]
not satisfied

Determine whether measured protein stability index meets or exceeds 3 for REESLPNLLQYVRMPLLTPRTITD [Y21T]
satisfied

Determine whether measured protein stability index meets or exceeds 3 for REESLPNLLQYVRMPLLTPGYITD [R20G]
satisfied

Determine whether measured protein stability index meets or exceeds 3 for REESLPNLLQYVRMPLLTPRYITY [D24Y]
not satisfied

Determine whether measured protein stability index meets or exceeds 3 for REYSLPNLLQYVRMPLLTPRYITD [E3Y]
not satisfied

Determine whether measured protein stability index meets or exceeds 3 for REESLPNLLQYVRMPLLTPRYITE [D24E]
not satisfied

Determine whether measured protein stability index meets or exceeds 3 for REESLPNLLQYVRMHLLTPRYITD [P15H]
not satisfied

Determine whether measured protein stability index meets or exceeds 3 for REESLPALLQYVRMPLLTPRYITD [N7A]
not satisfied

Determine whether measured protein stability index meets or exceeds 3 for MEESLPNLLQYVRMPLLTPRYITD [R1M]
not satisfied

Determine whether measured protein stability index meets or exceeds 3 for RESSLPNLLQYVRMPLLTPRYITD [E3S]
not satisfied

Determine whether measured protein stability index meets or exceeds 3 for RENSLPNLLQYVRMPLLTPRYITD [E3N]
not satisfied

Determine whether measured protein stability index meets or exceeds 3 for REESLPNLLQYVRMPLLTPRYYTD [I22Y]
not satisfied

Determine whether measured protein stability index meets or exceeds 3 for REESLPNLLQYVRMPLPTPRYITD [L17P]
not satisfied

Determine whether measured protein stability index meets or exceeds 3 for REESLPNLLQYVWMPLLTPRYITD [R13W]
not satisfied

Determine whether measured protein stability index meets or exceeds 3 for REESPPNLLQYVRMPLLTPRYITD [L5P]
not satisfied

Determine whether measured protein stability index meets or exceeds 3 for REESLPNLLQYVRMPLLTPRYETD [I22E]
satisfied

Determine whether measured protein stability index meets or exceeds 3 for REESLPNLLQYVRMDLLTPRYITD [P15D]
not satisfied

Determine whether measured protein stability index meets or exceeds 3 for REESLPNLLQYVRRPLLTPRYITD [M14R]
not satisfied

Determine whether measured protein stability index meets or exceeds 3 for REESLPNLLQGVRMPLLTPRYITD [Y11G]
satisfied

Determine whether measured protein stability index meets or exceeds 3 for REVSLPNLLQYVRMPLLTPRYITD [E3V]
not satisfied

Determine whether measured protein stability index meets or exceeds 3 for REESLPNLLQYVRMPLLTPREITD [Y21E]
satisfied

Determine whether measured protein stability index meets or exceeds 3 for REESLPNLLQYVRMPLLTGRYITD [P19G]
not satisfied

Determine whether measured protein stability index meets or exceeds 3 for REESLPNLLQYVRMPLLTPRYATD [I22A]
not satisfied

Determine whether measured protein stability index meets or exceeds 3 for REESLPNLLQYVRMPLLTPIYITD [R20I]
not satisfied

Determine whether measured protein stability index meets or exceeds 3 for REESLPNLLQYVRMPCLTPRYITD [L16C]
not satisfied

Determine whether measured protein stability index meets or exceeds 3 for EEESLPNLLQYVRMPLLTPRYITD [R1E]
not satisfied

Determine whether measured protein stability index meets or exceeds 3 for REESLPNLLQYVRMPPLTPRYITD [L16P]
not satisfied

Determine whether measured protein stability index meets or exceeds 3 for REESLPNLLQYVRMPLLTPRAITD [Y21A]
satisfied

Determine whether measured protein stability index meets or exceeds 3 for REEGLPNLLQYVRMPLLTPRYITD [S4G]
not satisfied

Determine whether measured protein stability index meets or exceeds 3 for REESLPNPLQYVRMPLLTPRYITD [L8P]
satisfied

Determine whether measured protein stability index meets or exceeds 3 for REWSLPNLLQYVRMPLLTPRYITD [E3W]
not satisfied

Determine whether measured protein stability index meets or exceeds 3 for REESLPNLLQYVRMPALTPRYITD [L16A]
not satisfied

Determine whether measured protein stability index meets or exceeds 3 for REESLPNLLQYVRMPLLTPRRITD [Y21R]
satisfied

Determine whether measured protein stability index meets or exceeds 3 for REETLPNLLQYVRMPLLTPRYITD [S4T]
not satisfied

Determine whether measured protein stability index meets or exceeds 3 for REESLPNLLQYVRMPLLFPRYITD [T18F]
not satisfied

Determine whether measured protein stability index meets or exceeds 3 for REDSLPNLLQYVRMPLLTPRYITD [E3D]
not satisfied

Determine whether measured protein stability index meets or exceeds 3 for REESLPVLLQYVRMPLLTPRYITD [N7V]
not satisfied

Determine whether measured protein stability index meets or exceeds 3 for REESLPNLLQYVRMPLLNPRYITD [T18N]
not satisfied

Determine whether measured protein stability index meets or exceeds 3 for REESLPNLLQYVRMPLLTPRYILD [T23L]
not satisfied

Determine whether measured protein stability index meets or exceeds 3 for REESLPNDLQYVRMPLLTPRYITD [L8D]
satisfied

Determine whether measured protein stability index meets or exceeds 3 for REESLPNLNQYVRMPLLTPRYITD [L9N]
satisfied

Determine whether measured protein stability index meets or exceeds 3 for REESHPNLLQYVRMPLLTPRYITD [L5H]
not satisfied

Determine whether measured protein stability index meets or exceeds 3 for REESLPNLLQYVRMPLLTPRYIND [T23N]
not satisfied

The measurements presented in this section are drawn from the supplement of paper PMC10567573.
